Test: basal CRE-LacZ reporter activity in PC12 – cell-based, unstimulated, primary screen (AID 1145)
Conditions: no forskolin, luminescence, 4.5 h, higher = more signal, called active from +8 up or from −8 down
recorded-metric: z-score
Form field (numeric): enter value without unit.

Example entries and their recorded answers appear below.
>>> numeric_value("CCCC=C(CCC)[C@@H](NP(=O)(c1ccccc1)c1ccccc1)c1ccc(-c2ccccc2)cc1")
0.204
>>> numeric_value("O=C1O[C@@H](c2ccccc2)[C@@H](c2ccccc2)N2[C@@H](c3ccc(O)cc3)[C@]3(C(=O)Nc4ccc(C#CCCO)cc43)[C@@H](C(=O)N3CCN(c4ncccn4)CC3)[C@H]12")
-0.554

Reported z-score of `CCOC(=O)C1=C[C@@H](C(C)C)N(S(=O)(=O)c2ccc(C)cc2)[C@H]1c1ccc(C(F)(F)F)cc1` : 0.939

Record summary for `COCCOC(=O)N1C(=O)[C@@]2(c3cc(C#CC4=CCCCC4)ccc31)[C@H](c1ccccc1OCCO)N1[C@H](c3ccccc3)[C@H](c3ccccc3)OC(=O)[C@H]1[C@@H]2C(=O)NC[C@H](O)c1ccccc1` : reported z-score = -0.329

###

Assay: plasmodial surface anion channel blockers, osmotic lysis – cell-based, P. falciparum Indochina, OD700, 1 h, primary screen (AID 1154)
Conditions: P. falciparum Indochina infected RBC osmotic lysis, higher = more signal, called active from +8 up or from −8 down
recorded-metric: z-score
Lab note: record the figure alone, no unit after it.

Answered examples (8):
>>> numeric_value("Cn1cccc1C(O)C1C=CC2C(=O)N(c3ccccc3)C(=O)C2N1Nc1ccccc1 (stereo not drawn)")
2.42
>>> numeric_value("NC(=O)NCC#Cc1ccc2c(c1)[C@]1(C(=O)N2)[C@H](C(=O)N2CCN(c3ncccn3)CC2)[C@H]2C(=O)O[C@H](c3ccccc3)[C@H](c3ccccc3)N2[C@@H]1c1ccc(O)cc1")
-0.362
>>> numeric_value("COCCOC(=O)N1C(=O)[C@@]2(c3cc(C#CCCO)ccc31)[C@H](c1ccc(OCCO)cc1)N1[C@H](c3ccccc3)[C@H](c3ccccc3)OC(=O)[C@H]1[C@@H]2C(=O)Nc1nc2ccccc2s1")
3.74
>>> numeric_value("C=CC[C@]1(C(=O)N2CCOCC2)COC(c2ccc(OCCCO)cc2)=N1")
5.33
>>> numeric_value("CC(C)(C)OC(=O)COc1cccc(C(=O)CCN2CCOCC2)c1")
6.63
>>> numeric_value("O=C1O[C@H](c2ccccc2)[C@H](c2ccccc2)N2[C@H]1[C@@H](C(=O)O)[C@]1(C(=O)Nc3ccc(C#CCCO)cc31)[C@H]2c1ccccc1OCCO")
0.396
>>> numeric_value("COc1cc(NN2C(C(O)c3ccco3)C=CC3C(=O)N(C)C(=O)C32)cc(OC)c1OC (stereo not drawn)")
0.715
>>> numeric_value("O=C1NC(=O)C2C1C=CC(C(O)c1ccco1)N2Nc1ccc(Cl)cc1Cl (stereo not drawn)")
5.52

// field: z-score; key: `CCCC[C@@H]1C[C@H]1[C@@H](NC(=O)c1cccs1)c1ccccc1C(F)(F)F` ; value = 1.89

Reported z-score of `CCCC[C@@H](O)C1=C(COC)C[C@H]2C(=O)N(C)C(=O)[C@H]2[C@H]1CO` : -0.179

For this compound ( C=CCC(OC(C)=O)[C@@H]1[C@@H](N(Cc2ccc(-c3ccccc3)cc2)C(=O)c2ccc(-c3ccccc3)cc2)c2cc(OCCCO)ccc2N1C(=O)c1ccc2ccccc2c1 (stereo partly drawn) ), measured z-score is 0.225

Documented z-score of `O=C(O)[C@@H]1[C@@H]2C(=O)N(c3ccccc3)C(=O)[C@@H]2C[C@@H]1Sc1ccccc1` : 0.919

z-score in this record for `C=CC[C@]1(C(=O)N2CCCCC2)N=C(c2ccc(OCCCO)cc2)O[C@H]1c1ccccc1CN=[N+]=[N-]` : 23.1

GET /value?item= `CC(=O)NCCCC[C@@H]1NC(=O)[C@@H]2C[C@H](C(=O)NCCCCCN)[C@H](c3ccc(O)cc3)N2C1=O` &field=z-score returns 1.46

Reported z-score for CCN(CC)c1ccc(N2CC=CC34O[C@@H]5/C=C\CCCOC(=O)C5[C@H]3C(=O)N(C(C)CO)[C@@H]4C2=O)cc1 (stereo partly drawn) was 0.733

z-score in this record for `O=C(O)[C@@H]1C[C@@H]2C(=O)N3CCC[C@H]3C(=O)N2[C@@H]1c1ccc(O)cc1` : 3.69

Record summary for CN1C(=O)C2C=CC(C(O)c3cccn3C)N(Nc3ccc([N+](=O)[O-])cc3[N+](=O)[O-])C2C1=O (stereo not drawn) : reported z-score = 0.627

Reported z-score ( `CC[C@@H]1C=C(C(=O)O)[C@H](c2ccccc2)N1S(=O)(=O)c1ccc(C)cc1` ) = 1

Noted for `COC(=O)[C@@H]1N=C(c2ccc(OCCCO)cc2)O[C@@H]1c1ccccc1` : its z-score reads 24.5

get_value(item= `CCOC(=O)C[C@H]1[C@H](OC(=O)c2ccc(C(=O)c3ccccc3)cc2)[C@@H](NC(=O)CC(C)C)c2cc(OCCCO)ccc2N1C(=O)c1ccccc1` , readout=z-score) returns 1.06

Measured z-score of CC(C)C(CO)N1C(=O)[C@@H]2C3C(=O)OCCC/C=C\[C@H]3OC23C=CCN(Cn2nnc4ccccc42)C(=O)[C@@H]13 (stereo partly drawn) : 0.897

Record `COc1ccc([Si](C)(C)[C@@H]2[C@@H](CC(=O)N3Cc4ccccc4C[C@H]3CO)O[C@]3(C(=O)N(Cc4ccc(N5C(=O)c6cccc7cccc5c67)cc4)c4ccccc43)[C@H]2C)cc1` , field z-score: 3.62

Lab note: `Cc1ccc(S[C@]2(C(=O)NCC(F)(F)F)CC(=O)N(Cc3cc(C(F)(F)F)cc(C(F)(F)F)c3)[C@@H]2c2ccc(CO)cc2)cc1` gave z-score of 1.74

###

Target: Homeobox protein Hox-A13 (Mus musculus)
Assay: disruptors of Hoxa13 oligonucleotide interaction – biochemical, fluorescence polarization, labeled oligonucleotide, primary screen (AID 1185)
Conditions: Hoxa13:DNA binding, 15 min, higher = more signal, called active from +8 up or from −8 down
recorded-metric: z-score
Answer using only a numeral; do not append any unit.

>>> numeric_value("CC1CC/C=C\\[C@H]2OC34C=CCN(C(C)(C)C)C(=O)[C@H]3N(CCCCCO)C(=O)[C@@H]4C2C(=O)O1 (stereo partly specified)")
-4.58
>>> numeric_value("CCOC(=O)C=Cc1cccc(C)c1O")
0.534
>>> numeric_value("NC(=O)[C@H]1[C@@H]2C(=O)O[C@@H](c3ccccc3)[C@@H](c3ccccc3)N2[C@@H](c2ccc(OCCO)cc2)[C@]12C(=O)Nc1ccc(C#CCCO)cc12")
-4.68
>>> numeric_value("COCCOC(=O)N1C(=O)[C@@]2(c3cc(C#CCNC(N)=O)ccc31)[C@H](C(N)=O)[C@H]1C(=O)O[C@H](c3ccccc3)[C@H](c3ccccc3)N1[C@@H]2c1ccccc1OCCO")
-2.45

Log: Homeobox protein Hox-A13 (Mus musculus), molecule O=C1CS(=O)(=O)C(c2cccc([N+](=O)[O-])c2)N1c1ccccc1 (stereo unspecified) , z-score = 0.011

Tested on Homeobox protein Hox-A13 (Mus musculus): CCCCC(CC)C(O)C1C=CC2C(=O)N(c3ccccc3)C(=O)C2N1Nc1ccccc1F (stereo unspecified) . Observed z-score: -2.25

###

Assay: growth modulation of vineyard yeast isolate – strain RM11-1a, OD600, basal, 24 h, primary screen (AID 1177);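 also: cultures grown under basal conditions with no added stressor; test concentration not given here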
Conditions: S. cerevisiae RM11-1a growth, OD600, 24 h; higher = more signal, called active from +8 up or from −8 down
recorded-metric: z-score
Number, no unit, nothing else.

Answered examples (10):
>>> numeric_value("O=C(NCc1ccc(F)cc1)[C@H]1C[C@H]2C(=O)NCC(=O)N2[C@H]1c1ccc(O)cc1")
1.23
>>> numeric_value("[N-]=[N+]=Nc1ccccc1C[C@]1(C(=O)NCC(O)CO)COC(c2ccc(OCCCO)cc2)=N1 (stereo partly drawn)")
1.73
>>> numeric_value("CCC#CCN(Cc1ccccc1Br)[C@H](/C=C/C1CC1)[C@@H](O)Cc1ccccc1")
-2.7
>>> numeric_value("CCOC(=O)C1=C[C@@H](C(C)C)N(S(=O)(=O)c2ccc(C)cc2)[C@H]1c1ccc(C(F)(F)F)cc1")
2.24
>>> numeric_value("CCOC(=O)[C@@H]1CCCCN1C(=O)C(=O)OC")
0.245
>>> numeric_value("COc1cccc(C)c1NC(=O)O[C@H]1[C@H](OC(=O)Nc2ccccc2-c2ccccc2)[C@H](OC(=O)Nc2ccccc2-c2ccccc2)[C@@H](OC)O[C@@H]1CO")
1.25
>>> numeric_value("Cc1ccc(C(C)CC(O)C2C=CC3C(=O)N(c4ccccc4)C(=O)C3N2Nc2ccccc2)o1 (stereo not drawn)")
0.184
>>> numeric_value("CCCC[C@@H](O)C1=C(COC)C[C@H]2C(=O)N(Cc3ccccc3)C(=O)[C@H]2[C@H]1CO")
0.643
>>> numeric_value("CCOC(=O)C[C@H]1[C@H](OC(=O)c2ccccc2-c2ccccc2)[C@@H](NC(=O)c2ccc3ccccc3c2)c2cc(OCCCO)ccc2N1C(=O)c1ccccc1")
0.874
>>> numeric_value("CCCCCN1CC=CC23O[C@@H]4C=CCCOC(=O)C4[C@H]2C(=O)N(CCCCCCO)[C@@H]3C1=O (stereo partly drawn)")
0.543

Reported z-score ( `O=C1O[C@@H](c2ccccc2)[C@@H](c2ccccc2)N2[C@@H](c3ccc(OCCO)cc3)[C@]3(C(=O)Nc4ccc(C#CC5=CCCCC5)cc43)[C@@H](C(=O)NC[C@H](O)c3ccccc3)[C@H]12` ) = 2.72

Lab book: z-score of COc1cc2c(cc1O)C(C1CC1)N(C)CC2 (stereo not drawn) noted as -0.0321

Entry `O=C1N(CCS(=O)(=O)c2ccccc2)c2ccccc2[C@H]2OC(c3ccc(OCCCO)cc3)=N[C@@]12Cc1ccccc1` , z-score reported as 2.01

Value of measured z-score for the entry CS(=O)(=O)CCOC(=O)C1=CC(CCCO)=CC(c2ccc(CN3CCCC3)cc2)N(Cc2sc3ccccc3c2Cl)C=C1C(=O)OCCS(C)(=O)=O (stereo not drawn) : 0.34

z-score for `COCCOC(=O)N1C(=O)[C@@]2(c3cc(C#CCC(C(=O)OC)C(=O)OC)ccc31)[C@H](c1ccc(OCCO)cc1)N1[C@H](c3ccccc3)[C@H](c3ccccc3)OC(=O)[C@H]1[C@@H]2C(=O)N1CCc2cc(OC)c(OC)cc2C1` is 3.32

For this compound ( `[N-]=[N+]=Nc1ccccc1[C@H]1OC(c2ccc(OCCCO)cc2)=N[C@@]1(Cc1ccccc1)C(=O)NCCN1CCOCC1` ), measured z-score is 0.964

Note to self: z-score recorded for `C=CC[C@]1(C(=O)N2CCOCC2)COC(c2ccc(OCCCO)cc2)=N1` was -0.19

Lab book: z-score of `CO[C@H]1O[C@H](CO)[C@@H](OC(=O)Nc2ccc(Br)cc2)[C@@H]2OC(=O)[C@@H](Cc3ccccc3)C/C=C/C[C@H](Cc3ccccc3)C(=O)O[C@@H]12` noted as 1.59
